- procedure text: Pharmacokinetics in mice
- Assay type: in vivo, mouse
- cond: female, Balb/c, mouse, in vivo, po, 10 umol/kg; 10 μmol/kg p.o.
property measured: AUC(0-t)

>>> df
                               entry_smiles  data_value
0  Cc1nnsc1C(=O)N[C@H]1CCN2c3ccc(C#N)cc3[C@@H](C)c3ccccc3[C@@H]2C1   23.2 µM·h

----------
- procedure text: Pharmacokinetics in mice
- Type: in vivo, mouse
- cond: female, Balb/c, mouse, in vivo, iv, 10 umol/kg; 10 μmol/kg i.v.
property measured: clearance (mL/min/kg)

>>> df
                                   molecule  data_value
0  C[C@]12C=CC(=O)C=C1CC[C@@H]1[C@@H]2[C@@H](O)C[C@@]2(C)[C@H]1CC[C@]2(O)C(=O)CO [prednisolone, reference compound]        23.3
